Tested on: SW-620 colon
Assay: NCI-60 one-dose screen, 48 h (100 = growth as untreated, 0 = no growth, -100 = all killed)
Details: 10 µM unless noted
This is part of a sample that, as a whole, favours compounds with a hit. Of some 83,000 tested, about 20% had one in any assay.
Values of growth strictly less than 40% map to TRUE, and values of at least 40% map to FALSE.

| SMILES_NOTATION | ASSIGNED_CLASS |
| --- | --- |
| COc1ccc(NC(=O)c2ccc(C(=O)Nc3ccc(OC)cc3OC)cc2)c(OC)c1 | FALSE |
| CCN(CC)CCOc1nc2c3ccc(Cl)cc3nn2c2ccccc12 | TRUE |
| CCc1cccc(Sc2cc(C(=O)N3Cc4ccc(OCCN(C)C)cc4C3)ccc2O)c1 | FALSE |
| N=C(N)c1ccc(-c2ccc(-c3ccc(Cl)cc3Cl)s2)cc1F | TRUE |
| COP(=O)(OC)c1nnn(-c2cccc([N+](=O)[O-])c2)c1C | FALSE |
